Data provenance is paper PMC9124651.

target: AChE from electric eel (Electrophorus electricus) (Electrophorus electricus, UniProt O42275)
Sequence (O42275 24-633): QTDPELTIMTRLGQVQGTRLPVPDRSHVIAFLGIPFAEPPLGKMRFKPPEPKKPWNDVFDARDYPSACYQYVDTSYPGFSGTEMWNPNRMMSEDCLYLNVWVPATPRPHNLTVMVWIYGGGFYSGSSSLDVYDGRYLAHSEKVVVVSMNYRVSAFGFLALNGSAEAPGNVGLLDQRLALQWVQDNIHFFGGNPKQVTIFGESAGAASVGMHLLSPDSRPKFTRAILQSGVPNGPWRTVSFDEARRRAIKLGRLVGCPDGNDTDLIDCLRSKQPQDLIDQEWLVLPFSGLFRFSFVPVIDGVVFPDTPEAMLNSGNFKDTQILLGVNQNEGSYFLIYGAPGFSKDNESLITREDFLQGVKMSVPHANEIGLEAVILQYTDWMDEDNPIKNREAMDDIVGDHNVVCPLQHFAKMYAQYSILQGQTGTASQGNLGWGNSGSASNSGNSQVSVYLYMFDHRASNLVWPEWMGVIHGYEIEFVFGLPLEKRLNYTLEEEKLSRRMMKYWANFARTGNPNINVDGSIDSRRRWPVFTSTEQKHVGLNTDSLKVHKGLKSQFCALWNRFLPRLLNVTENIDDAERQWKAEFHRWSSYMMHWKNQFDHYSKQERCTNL
Parameter: IC50

{"Molecule": "CCOC(=O)CC(SP(=O)(OC)OC)C(=O)OCC (stereo not shown)", "Readout value": "38.2 nM"}

----------
Listed here: items and their measured IC20 (20% AChE inhibition), best fit.
biological target: AChE from electric eel (Electrophorus electricus) (Electrophorus electricus); construct: purchased Sigma-Aldrich GmbH (Steinheim, Germany); assay: HPTLC-(Ox)-AChE-I assay, immersion method (plates immersed in AChE solution); format: biochemical; settings: without oxidation, OTPs 100 µL, oxons 10 µL applied, peak heights, n = 3

{"Compound": "CCOC(=O)CC(SP(=O)(OC)OC)C(=O)OCC (stereo not shown) [Malaoxon, malaoxon]", "Subject of test": "AChE from electric eel (Electrophorus electricus) (Electrophorus electricus)", "IC20 (20% AChE inhibition), best fit [ng/spot]": 0.24}
{"Compound": "CCOC(=O)CC(SP(=S)(OC)OC)C(=O)OCC (stereo not shown) [Malathion, malathion]", "Subject of test": "AChE from electric eel (Electrophorus electricus) (Electrophorus electricus)", "IC20 (20% AChE inhibition), best fit [ng/spot]": 536}
{"Compound": "CCOP(=O)(OCC)Oc1nc(Cl)c(Cl)cc1Cl [Chlorpyrifos-oxon]", "Subject of test": "AChE from electric eel (Electrophorus electricus) (Electrophorus electricus)", "IC20 (20% AChE inhibition), best fit [ng/spot]": 0.57}
{"Compound": "CCOP(=O)(OCC)Oc1ccc([N+](=O)[O-])cc1 [Paraoxon, paraoxon]", "Subject of test": "AChE from electric eel (Electrophorus electricus) (Electrophorus electricus)", "IC20 (20% AChE inhibition), best fit [ng/spot]": 0.99}

----------
target: AChE from electric eel (Electrophorus electricus) (Electrophorus electricus, UniProt O42275); construct: purchased Sigma-Aldrich GmbH (Steinheim, Germany); assay: HPTLC-(Ox)-AChE-I assay, spray method (AChE sprayed onto plates); assay type: biochemical; settings: spray method; without oxidation
Parameter: LOD spray method (first detected AChE-I peak with signal-to-noise ratio ≥ 3) (ng/spot)

{"Molecule": "CCOC(=O)CC(SP(=O)(OC)OC)C(=O)OCC (centres unmarked)", "Readout value": 0.1}
{"Molecule": "CCOP(=S)(OCC)Oc1ccc([N+](=O)[O-])cc1", "Readout value": 100}
{"Molecule": "CCOP(=S)(OCC)Oc1nc(Cl)c(Cl)cc1Cl", "Readout value": 250}
{"Molecule": "CCOC(=O)CC(SP(=S)(OC)OC)C(=O)OCC (centres unmarked)", "Readout value": 250}
{"Molecule": "CCOP(=O)(OCC)Oc1nc(Cl)c(Cl)cc1Cl", "Readout value": 0.25}

----------
Listed here: items and their measured IC20 (20% AChE inhibition), best fit.
target: AChE from electric eel (Electrophorus electricus) (Electrophorus electricus, UniProt O42275); construct: purchased Sigma-Aldrich GmbH (Steinheim, Germany); assay: HPTLC-(Ox)-AChE-I assay, spray method (AChE sprayed onto plates); type: biochemical; conditions: spray method; without oxidation; OTPs 100 µL, oxons 10 µL applied; peak heights, n = 3
Parameter: IC20 (20% AChE inhibition), best fit (ng/spot)

{"Molecule": "CCOP(=O)(OCC)Oc1ccc([N+](=O)[O-])cc1 [Paraoxon, paraoxon]", "Parameter": "IC20 (20% AChE inhibition), best fit", "Readout value": 1.2}
{"Molecule": "CCOC(=O)CC(SP(=S)(OC)OC)C(=O)OCC (stereo not shown) [Malathion, malathion]", "Parameter": "IC20 (20% AChE inhibition), best fit", "Readout value": 493}
{"Molecule": "CCOC(=O)CC(SP(=O)(OC)OC)C(=O)OCC (stereo not shown) [Malaoxon, malaoxon]", "Parameter": "IC20 (20% AChE inhibition), best fit", "Readout value": 0.28}
{"Molecule": "CCOP(=O)(OCC)Oc1nc(Cl)c(Cl)cc1Cl [Chlorpyrifos-oxon]", "Parameter": "IC20 (20% AChE inhibition), best fit", "Readout value": 1.1}
